B1: SOAT1 (parent)
chain: VYYIFERLCAPLFRNIKQEPFSAR

# Variants of: B1
# METHOD SUMMARY: protein stability index of a GFP-peptide fusion (GPS, HEK-293T) (PSI 1-6); higher = more stable;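 note: lentivirally expressed fusions sorted by FACS into six bins by GFP to DsRed ratio, PSI derived from sequencing read proportions per bin multiplied by bin number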
# REPORTED CONDITIONS: c terminus: a fixed tail appended
READOUT LABEL: protein stability index
// return just the number, without any unit appended

VARIANT KEY	protein stability index
R7I	5.23
S22E	2.61
E6W	2.59
A10W	2.4
F21T	2.7

Query: Give the value of protein stability index reported for the following: `C9F`
Response: 1.95

Query: Specify protein stability index for `Q18Y` and stop.
Response: 3.88

Query: Read the entry `Y2Q` and write its reported protein stability index.
Response: 2.42

Query: Supply reported protein stability index belonging to this variant: `I16L`
Response: 2.61

Origin of values: the supplement of paper PMC10567573
